Measured values drawn from PubChem BioAssay (NCI) for this set.

assay: NCI Yeast Anticancer Drug Screen. Data for the mlh1 rad18 strain (AID 175); settings: S. cerevisiae mlh1 rad18 strain growth inhibition; at 50.0 µM; active compounds read high
The panel holds about 79,000 compounds, 15% with a hit somewhere; the sample as a whole holds those more often.
Exercise: for every item that follows, state its recorded growth inhibition.
Quick note: give the figure in %, leave out the unit.

Recorded growth inhibition for CCOC(=O)C(NC(N)=O)C(=O)OCC , please?
4.7

Recorded growth inhibition for CC(C)CSc1nc(N)nc2c1ncn2CC(C)C , please?
18.9

Recorded growth inhibition for Cc1ccc(C(=O)CC2=NC3NN(c4ccccc4)C(=O)C3=C2CC(=O)c2ccc(C)cc2)cc1 (stereo not given) , please?
45.3

Recorded growth inhibition for CC1=CC(=O)[C@@H](O)[C@]2(C)[C@H]3[C@@]4(O)OC[C@]35[C@H]([C@@H](CO)[C@H]4O)[C@@H](OC3OC(CO)C(O)C(O)C3O)C(=O)O[C@@H]5C[C@@H]12 (stereo not given in full) , please?
-25.9

Recorded growth inhibition for NC1=NC=N/C(=N\c2ccccn2)C1N (stereo not given) , please?
-8.6

Recorded growth inhibition for Nc1cccc(C(F)(F)F)c1N , please?
8.3

Recorded growth inhibition for CCCCn1c(=S)sc2ccccc21 , please?
22.4

Recorded growth inhibition for CCCCCc1cc(C(=O)NN)c2ccccc2n1 , please?
-12.8

Recorded growth inhibition for CC(=O)N(C(C)=O)C(CS)C(=O)O (stereo not given) , please?
2.6

Recorded growth inhibition for S=C1Nc2ccccc2C2CC=NN12 (stereo not given) , please?
29.4

Recorded growth inhibition for CC1(C)C(CC(=O)O)CC1C(=O)O (stereo not given) , please?
-1.4

Recorded growth inhibition for O=C(CP(=O)(c1ccccc1)c1ccccc1)c1cccc(C(=O)CP(=O)(c2ccccc2)c2ccccc2)c1 , please?
-2.4

Recorded growth inhibition for CCOCCOC(=O)C1CCC(=O)N1CN(C(C)=O)c1cc(OC)ccc1OC (stereo not given) , please?
-39.5

Recorded growth inhibition for CCN(CC)C(=O)C1=C(C)NC(C)=C(C(=O)N(CC)CC)C1 , please?
-68.5

Recorded growth inhibition for CN(C)C(=O)c1cc2ccccc2[nH]1 , please?
20.2

Recorded growth inhibition for CCOC(=O)C/C(C)=N\NS(=O)(=O)c1ccc([N+](=O)[O-])cc1 , please?
2.45

Recorded growth inhibition for O=C(O)C1c2ccccc2-c2ccccc21 , please?
39

Recorded growth inhibition for CC(C)=CC1C(COC(=O)c2ccccc2Cl)C1(C)C (stereo not given) , please?
18.8

Recorded growth inhibition for COc1ccc(I)cc1 , please?
2.35

Recorded growth inhibition for CC(C)(C)[Si](C)(C)OCC1CCC(n2cnc3c(N)ncnc32)O1 (stereo not given) , please?
6.7

---

assay: NCI Yeast Anticancer Drug Screen. Data for the mlh1 rad18 strain (AID 175); conditions: S. cerevisiae mlh1 rad18 strain growth inhibition; at 50.0 µM; active compounds read high
About 79,000 compounds went through this panel and 15% of them were active in at least one assay; those are over-represented in the sample as a whole. Activity calls are given as the source filed them. No stated cut-off is given here; in the data, active means growth inhibition above about 70%; inactive means the rest.
metric: growth inhibition

Recorded growth inhibition for OCc1sccc1-n1cccc1 , please?
-28.6% (inactive)

Recorded growth inhibition for Cc1ccc(C(=O)NNC(=O)c2ccc3ccccc3c2)cc1 , please?
-12.9% (inactive)

Recorded growth inhibition for CCCCCC(C)(O)CCCCC , please?
12% (inactive)

Recorded growth inhibition for CC/C(C)=N\NC(N)=O , please?
6.9% (inactive)

Recorded growth inhibition for Cc1ccc2c3c1CCCN3CCC2 , please?
8.95% (inactive)

Recorded growth inhibition for COC1OC(CO)C(O)C(NC(=O)OCc2ccccc2)C1O (stereo not given) , please?
-13.4% (inactive)

Recorded growth inhibition for Clc1ccc2nc(/C=C/c3ccccc3)cnc2c1 , please?
22.5% (inactive)

Recorded growth inhibition for Cn1c(Cl)cc2nc3ccccc3n2c1=O , please?
5.4% (inactive)

Recorded growth inhibition for CCN(CC)CCC(C)C(Cc1cccs1)OC(C)=O (stereo not given) , please?
5.6% (inactive)

Recorded growth inhibition for COc1ccc(C(=CC2=CC(=O)C3=C(CCCC3)C2=O)c2ccc(OC)cc2)cc1 , please?
7.2% (inactive)

Recorded growth inhibition for Nn1c(C23CC4CC(CC(C4)C2)C3)n[nH]c1=S , please?
28.1% (inactive)

Recorded growth inhibition for Nc1ncnc2c1cnn2Cc1ccccc1 , please?
2.35% (inactive)

Recorded growth inhibition for Cc1cc2nnc(-c3cccc([N+](=O)[O-])c3)n2c2nnnn12 , please?
36.7% (inactive)

Recorded growth inhibition for CC1(C)C=C(C(=O)O)C(C)(C)N1O , please?
2.25% (inactive)

Recorded growth inhibition for Cc1c(I)sc(I)c1I , please?
12.6% (inactive)

Recorded growth inhibition for CC/C=C(\C)C(C#N)(CCC)C(=O)OCC (stereo not given) , please?
-31.7% (inactive)

Recorded growth inhibition for CNS(=O)(=O)c1ccccc1C(=N)c1ccccc1 , please?
-31.4% (inactive)

Recorded growth inhibition for O=C1C2CC3C(C2)C13 , please?
11.5% (inactive)

Recorded growth inhibition for c1ccc(C2=NCC(c3ccccc3)(C3(c4ccccc4)SCCCS3)O2)cc1 (stereo not given) , please?
6.55% (inactive)

Recorded growth inhibition for CCCCCCCCCCCCCCCCOCC(COS(C)(=O)=O)OS(C)(=O)=O (stereo not given) , please?
1.5% (inactive)

Recorded growth inhibition for CC12CC3CC/C(=N\O)C(C1)C3(N1CCOCC1)C/C2=N/O (stereo not given) , please?
8.8% (inactive)

Recorded growth inhibition for c1ccc(-c2ccc3c4ccccc4ccn23)cc1 , please?
23.9% (inactive)

Recorded growth inhibition for Cc1cc(Cl)ccc1NC(=O)C(=O)Cc1nc2ccc(C(=O)c3ccccc3)cc2[nH]c1=O , please?
7.15% (inactive)

Recorded growth inhibition for Cc1ccc(-n2cnc3c(=O)[nH]cnc32)cc1N , please?
11.2% (inactive)

Recorded growth inhibition for CN(CCCN)CCCN , please?
-21.7% (inactive)
